% PTP activity values, listed per item
- measuredTarget: UniProtKB Q06124
- testMethodNotes: PTP activity assay (DiFMUP substrate) with GST-Shp2
- Assay type: biochemical
- conditionSet: concentration not given

| compound | % PTP activity |
| --- | --- |
| O=C1Nc2ccc(S(=O)(=O)NCc3cccs3)cc2/C1=N/Nc1ccccc1Cl [HL2-016-6] | 51 ± 3% (6) |
| O=C1Nc2ccc(S(=O)(=O)O)cc2/C1=N/Nc1ccccc1Cl [HL1-058-1] | 69 ± 9% (2) |
| CN(C)S(=O)(=O)c1ccc2c(c1)/C(=N/Nc1ccccc1Cl)C(=O)N2 [HL2-016-1] | 36 ± 11% (12) |

get_value(item= O=C1Nc2ccc(S(=O)(=O)NCc3ccccn3)cc2/C1=N/Nc1ccccc1Cl [HL2-016-7] , readout=% PTP activity) returns 41 ± 23% (12)

Entry CN(C)S(=O)(=O)c1ccc2c(c1)/C(=N/Nc1ccccc1[N+](=O)[O-])C(=O)N2 [RPM124] — recorded % PTP activity = 52 ± 5% (6)

So, NS(=O)(=O)c1ccc2c(c1)/C(=N/Nc1ccccc1Cl)C(=O)N2 [HL2-016.2] ? Its % PTP activity was 40 ± 8% (12)

* * *

- measuredTarget: Shp2 (Homo sapiens (Human), UniProt Q06124)
- Sequence (Q06124 205-593): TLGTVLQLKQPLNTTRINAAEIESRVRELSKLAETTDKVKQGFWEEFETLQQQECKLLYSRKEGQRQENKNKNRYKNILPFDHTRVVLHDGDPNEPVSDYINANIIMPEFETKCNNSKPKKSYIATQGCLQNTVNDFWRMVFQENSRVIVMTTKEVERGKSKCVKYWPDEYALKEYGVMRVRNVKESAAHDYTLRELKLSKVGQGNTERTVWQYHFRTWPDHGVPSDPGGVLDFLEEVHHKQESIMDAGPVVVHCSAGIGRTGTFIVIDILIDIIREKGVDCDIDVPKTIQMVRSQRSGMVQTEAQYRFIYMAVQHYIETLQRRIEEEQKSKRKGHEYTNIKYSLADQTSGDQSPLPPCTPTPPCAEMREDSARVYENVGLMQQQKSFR
- testMethodNotes: PTP activity assay (DiFMUP substrate) with GST-Shp2
- Assay type: biochemical
- conditionSet: concentration not given
assayReadout: % PTP activity

| compound | result |
| --- | --- |
| COc1ccc(CNS(=O)(=O)c2ccc3c(c2)/C(=N/Nc2ccccc2Cl)C(=O)N3)cc1 [HL2-016-3] | 84 ± 24% (6) |
| COc1cccc(CNS(=O)(=O)c2ccc3c(c2)/C(=N/Nc2ccccc2[N+](=O)[O-])C(=O)N3)c1 [RPM137] | 31 ± 4% (12) |
| O=C1Nc2ccccc2/C1=N/Nc1ccccc1[N+](=O)[O-] [HL1-047] | 93 ± 9% (3) |

Item CN(C)CCNS(=O)(=O)c1ccc2c(c1)/C(=N/Nc1ccccc1[N+](=O)[O-])C(=O)N2 [RPM146] ; assay system Shp2 (Homo sapiens (Human), UniProt Q06124); % PTP activity reported as 57 ± 6% (6)

* * *

- measuredTarget: Shp2 (Homo sapiens (Human))
- testMethodNotes: PTP activity assay (DiFMUP substrate) with GST-Shp2
- Type: biochemical
- conditionSet: concentration not given
assayReadout: % PTP activity

Worked set:
| compound | % PTP activity |
| --- | --- |
| O=C1Nc2ccc(S(=O)(=O)NCc3ccc(Cl)cc3)cc2/C1=N/Nc1ccccc1[N+](=O)[O-] [RPM139] | 12 ± 5% (12) |
| O=C1C=CC2C(=C1O)Oc1c(ccc(O)c1O)C2C1CCCCC1C(=O)O (centres unmarked) [NSC-119910, reference compound] | 0.56 ± 0.1% (3) |
| CCC(C)NS(=O)(=O)c1ccc2c(c1)/C(=N/Nc1ccccc1Cl)C(=O)N2 (centres unmarked) [HL2-016-13] | 35 ± 4% (6) |
| O=C(O)c1ccc2cc(C(=O)Nc3cccc(S(=O)(=O)O)c3)ccc2c1 [HL2-022-2] | 52 ± 17% (5) |
| O=C1Nc2ccc(S(=O)(=O)NCc3ccccn3)cc2/C1=N/Nc1ccccc1[N+](=O)[O-] [RPM135] | 47 ± 10% (12) |
| O=C(O)c1cccc(NC(=O)c2ccc3cc(C(=O)O)ccc3c2)c1 [HL2-022-1] | 53 ± 4% (6) |
| O=C(O)c1cc(NC(=O)c2ccc3cc(C(=O)O)ccc3c2)cc(C(=O)O)c1 [HL2-026] | 87 ± 14% (6) |

Next up:
According to the records, this compound CCCNS(=O)(=O)c1ccc2c(c1)/C(=N/Nc1ccccc1Cl)C(=O)N2 [HL2-016-9] displays % PTP activity of 48 ± 1% (6)

* * *

- measuredTarget: Shp2 (Homo sapiens (Human), UniProt Q06124)
- testMethodNotes: PTP activity assay (DiFMUP substrate) with GST-Shp2
- Type: biochemical
- conditionSet: Table II, Shp2
assayReadout: IC50

Solved cases below.
| entrySmiles | measuredTarget | IC50 |
| --- | --- | --- |
| O=C1Nc2ccc(S(=O)(=O)O)cc2/C1=N/Nc1ccccc1C(=O)O | Shp2 (Homo sapiens (Human), UniProt Q06124) | 33 to 100 µM |
| CN(C)S(=O)(=O)c1ccc2c(c1)/C(=N/Nc1ccccc1[N+](=O)[O-])C(=O)N2 | Shp2 (Homo sapiens (Human), UniProt Q06124) | 33 to 100 µM |
| CC(C)NS(=O)(=O)c1ccc2c(c1)/C(=C/Nc1ccccc1C(=O)O)C(=O)N2 | Shp2 (Homo sapiens (Human), UniProt Q06124) | 33 to 100 µM |

For reference, reported IC50 for `COC(=O)c1ccc2cc(C(=O)Nc3c(O)cccc3C(=O)O)ccc2c1` stands at 33 to 100 µM

Lab note: measured IC50 of `O=C1Nc2ccc(S(=O)(=O)NCc3ccc(Cl)cc3)cc2/C1=N/Nc1ccccc1C(=O)O` was 33 to 100 µM

// IC50 value for `CC(C)NS(=O)(=O)c1ccc2c(c1)/C(=N/Nc1ccccc1C(=O)NCc1ccco1)C(=O)N2` : 33 to 100 µM

Form field IC50, entry `O=C1Nc2ccc(S(=O)(=O)O)cc2/C1=N/Nc1ccc(Cl)cc1Cl` : 33 to 100 µM

Recorded IC50 (molecule `O=C1Nc2ccccc2/C1=N/Nc1ccccc1Cl` ): 33 to 100 µM

* * *

- measuredTarget: Shp2 (Homo sapiens (Human), UniProt Q06124)
- testMethodNotes: PTP activity assay (DiFMUP substrate) with GST-Shp2
- Assay type: biochemical
- conditionSet: at 20 μM
assayReadout: % PTP activity

| entrySmiles | assayReadout | result |
| --- | --- | --- |
| CC(C)NS(=O)(=O)c1ccc2c(c1)/C(=C/Nc1ccccc1C(=O)O)C(=O)N2 | % PTP activity | 48 ± 7% (2) at 20 μM |

% PTP activity recorded for this compound, `CCNC(=O)c1cccc(N/N=C2\C(=O)Nc3ccc(S(=O)(=O)NC(C)C)cc32)c1` , is 45 + 2% 92) at 20 μM

What the record says about `O=C1Cc2cc(S(=O)(=O)NCc3ccc(Cl)cc3)ccc2N1` : % PTP activity is 39 ± 10% (20 at 20 μM

Item: `O=C1Nc2ccc(S(=O)(=O)O)cc2/C1=N/Nc1ccccc1` | % PTP activity: 51 ± 3% (3) at 20 μM

`CC(C)NC(=O)c1ccc2c(c1)/C(=N/Nc1cccc(C(=O)O)c1)C(=O)N2` has a reported % PTP activity of 53.62% (1) at 20 μM

The compound listed as `CCNC(=O)c1ccccc1N/N=C1\C(=O)Nc2ccc(S(=O)(=O)NC(C)C)cc21` has a reported % PTP activity of 48 ± 2% (2) At 20 μM

# compound `COC(=O)c1ccc2cc(C(=O)Nc3ccc(S(N)(=O)=O)cc3)ccc2c1` ; its % PTP activity = 66 ± 4% (3) at 20 uM

% PTP activity recorded for this compound, `CCc1ccccc1N/N=C1\C(=O)Nc2ccc(C(=O)O)cc21` , is 44 ± 5% (2) At 20 μM

// sample `CC(C)NS(=O)(=O)c1ccc2c(c1)/C(=N/Nc1ccccc1C(N)=O)C(=O)N2` , its % PTP activity was 52 ± 7% (2) At 20 μM

Recorded % PTP activity (compound `CCN(CC)C(=O)c1ccc2c(c1)/C(=N/Nc1ccccc1C(=O)O)C(=O)N2` ): 100.18% (1) at 20 μM

Lab note: measured % PTP activity of `COC(=O)c1ccc2cc(C(=O)Nc3c(O)cccc3C(=O)O)ccc2c1` was 58 ± 7% (3) at 20 uM

* * *

- measuredTarget: UniProt P18031
- Sequence (P18031 whole entry): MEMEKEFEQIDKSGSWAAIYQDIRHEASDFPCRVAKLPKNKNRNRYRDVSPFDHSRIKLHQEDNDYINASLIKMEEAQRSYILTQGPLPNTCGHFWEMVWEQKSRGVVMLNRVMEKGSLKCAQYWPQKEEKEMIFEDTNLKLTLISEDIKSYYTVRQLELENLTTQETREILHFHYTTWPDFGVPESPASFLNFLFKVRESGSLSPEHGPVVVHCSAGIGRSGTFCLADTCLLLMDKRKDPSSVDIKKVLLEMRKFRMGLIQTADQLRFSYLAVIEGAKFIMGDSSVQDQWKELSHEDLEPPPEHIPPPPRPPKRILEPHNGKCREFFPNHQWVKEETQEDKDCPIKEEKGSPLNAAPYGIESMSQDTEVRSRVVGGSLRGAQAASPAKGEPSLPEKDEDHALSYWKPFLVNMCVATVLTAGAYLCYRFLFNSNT
assayReadout: pIC50
Lab note: report pIC50 as minus log10 of the concentration in molar units, number only.

Bench note, UniProt P18031: entry O=S(=O)(O)c1ccc2cc(/N=N\c3cc(S(=O)(=O)O)c4cccnc4c3O)ccc2c1 [NSC-87877] , its pIC50 = 5.77

* * *

- measuredTarget: Shp2 (Homo sapiens (Human), UniProt Q06124)
- testMethodNotes: PTP activity assay (DiFMUP substrate) with GST-Shp2
- Format: biochemical
- conditionSet: concentration not given
// reported % PTP activity per item

Sample records with % PTP activity:
| molecule | measuredTarget | % PTP activity |
| --- | --- | --- |
| CCC(C)NS(=O)(=O)c1ccc2c(c1)/C(=N/Nc1ccccc1[N+](=O)[O-])C(=O)N2 (centres unmarked) | Shp2 (Homo sapiens (Human), UniProt Q06124) | 33 ± 7% (12) |
| O=C1Nc2ccc(S(=O)(=O)NCc3ccncc3)cc2/C1=N/Nc1ccccc1[N+](=O)[O-] | Shp2 (Homo sapiens (Human), UniProt Q06124) | 37 + 11% (12) |
| CCN1C(=O)/C(=N\Nc2ccccc2[N+](=O)[O-])c2cc(S(=O)(=O)N(C)C)ccc21 | Shp2 (Homo sapiens (Human), UniProt Q06124) | 50% ± 5% (6) |
| CN(Cc1ccccc1)S(=O)(=O)c1ccc2c(c1)/C(=N/Nc1ccccc1[N+](=O)[O-])C(=O)N2 | Shp2 (Homo sapiens (Human), UniProt Q06124) | 39 ± 8% (12) |
| O=C1Nc2ccc(S(=O)(=O)NCc3ccncc3)cc2/C1=N/Nc1ccccc1Cl | Shp2 (Homo sapiens (Human), UniProt Q06124) | 48 ± 5% (6) |
| CCCNS(=O)(=O)c1ccc2c(c1)/C(=N/Nc1ccccc1[N+](=O)[O-])C(=O)N2 | Shp2 (Homo sapiens (Human), UniProt Q06124) | 43 ± 8% (12) |
| COc1ccc(CNS(=O)(=O)c2ccc3c(c2)/C(=N/Nc2ccccc2[N+](=O)[O-])C(=O)N3)cc1 | Shp2 (Homo sapiens (Human), UniProt Q06124) | 36 ± 4% (6) |

get_value(item= `O=C1Nc2ccc(S(=O)(=O)NCc3cccnc3)cc2/C1=N/Nc1ccccc1Cl` , readout=% PTP activity) returns 78 ± 10% (6)
